- Target System: sigma receptors (Cavia porcellus, UniProt Q60492)
- Sequence (Q60492 whole entry): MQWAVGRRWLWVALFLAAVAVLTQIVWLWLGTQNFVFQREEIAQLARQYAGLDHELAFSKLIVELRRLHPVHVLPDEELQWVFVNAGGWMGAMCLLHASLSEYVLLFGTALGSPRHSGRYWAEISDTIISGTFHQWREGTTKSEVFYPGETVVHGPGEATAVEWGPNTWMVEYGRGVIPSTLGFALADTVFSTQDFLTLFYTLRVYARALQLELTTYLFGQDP
Counter-ions that a name gives are not always drawn.
# pKi per record follows
To interpret pKi, take it as minus log10 of a concentration measured in moles per litre.

Molecule: CCOC(=O)C1CC23CCCCC2CC1N(Cc1ccccc1)C3C (stereo not shown) [Example 5e, hydrochloride]
Target System: sigma receptors (Cavia porcellus, UniProt Q60492)
pKi: 6.48
--
Molecule: CC(=O)C1CC2C(C(C)C)CC1N(Cc1ccccc1)C2C (stereo not shown) [Example 11b]
Target System: sigma receptors (Cavia porcellus, UniProt Q60492)
pKi: 5.58
--
Molecule: CC1CC2C(C(C)(C)O)CC1(C)C(C)N2Cc1ccccc1 (stereo not shown) [Example 7]
Target System: sigma receptors (Cavia porcellus, UniProt Q60492)
pKi: 5.22
--
Molecule: CCOC(=O)C1(C)CC2(C)C(C)CC1N(Cc1ccccc1)C2C (stereo not shown) [Example 8a]
Target System: sigma receptors (Cavia porcellus, UniProt Q60492)
pKi: 5.01
--
Molecule: CCOC(=O)C1CC2C(C(C)C)CC1N(Cc1ccccc1)C2C (stereo not shown) [Example 9f]
Target System: sigma receptors (Cavia porcellus, UniProt Q60492)
pKi: 6.85
--
Molecule: CCOC(=O)C1CC2(C)C(C)CC1N(Cc1ccccc1)C2C (stereo not shown) [Example 2b]
Target System: sigma receptors (Cavia porcellus, UniProt Q60492)
pKi: 6.62

Switching to the query record.
Ask: // fetch pKi given entry CCOC(=O)C1(SC)CC2(C)C(C)CC1N(C)C2C (stereo not shown) [Example 6]
Reply: 5.23

---

- Target System: sigma receptors
- Assay Remarks: sigma receptor binding, [^3 H]di(2-tolyl)guanidine (DTG), guinea pig brain membranes
- Condition Set: mean of at least two separate determinations in triplicate; EBDA/LIGAND; [^3 H]DTG approx. 4 nM; 25° C., 90 min
pKi: −log10 of the molar value. Structures can show the parent of a compound that is named as a salt.
Binary classification by pKi, with 6 as an inclusive lower bound for T; all other cases are F.

Previously resolved entries follow.
Compound: CCOC(=O)C1(SC)CC2(C)C(C)CC1N(C)C2C (stereo not shown) [Example 6]
Label Class: F

Compound: CCOC(=O)C1CC23CCCCC2CC1N(Cc1ccccc1)C3C (stereo not shown) [Example 5e, hydrochloride]
Label Class: T

Compound: CCC1CC2C(C(C)(C)O)CC1C(Cc1ccccc1)N2C (stereo not shown) [Example 4e]
Label Class: F

Compound: CCOC(=O)C1CC2(C)C(C)CC1N(Cc1ccccc1)C2C (stereo not shown) [Example 2b]
Label Class: T

Compound: CCOC(=O)C1CC2C(C(C)C)CC1N(Cc1ccccc1)C2C (stereo not shown) [Example 9f]
Label Class: T

Ask: Evaluate CC(=O)C1(C)CC2(C)C(C)CC1N(Cc1ccccc1)C2C (stereo not shown) [Example 8b] : pKi at minimum 6?
Reply: F

Ask: Evaluate CCOC(=O)C1(C)CC2(C)C(C)CC1N(Cc1ccccc1)C2C (stereo not shown) [Example 8a] : pKi at minimum 6?
Reply: F

Ask: Evaluate CC1CC2C(C(C)(C)O)CC1(C)C(C)N2Cc1ccccc1 (stereo not shown) [Example 7] : pKi at minimum 6?
Reply: F

---

- Tested on: sigma receptors
- Assay Remarks: sigma receptor binding, [^3 H]di(2-tolyl)guanidine (DTG), guinea pig brain membranes
- Design: species or system guinea pig (male Hartley)
- Condition Set: at 10 μM; [^3 H]DTG approx. 4 nM; 25° C., 90 min
Counter-ions that a name gives are not always drawn.
# Percent Inhibition of [^3 H]DTG binding per record follows
Dear colleague, please return just the value in %, with no unit written.

Solved entries (count: 8):
Compound: CCOC(=O)C1(C)CC2(C)C(C)CC1N(Cc1ccccc1)C2C (stereo not drawn)
Endpoint Name: Percent Inhibition of [^3 H]DTG binding
Numeric Result: 29
--
Compound: CC=C1CC2C(C(=O)OCC)CC1C(Cc1ccccc1)N2Cc1ccccc1 (stereo not drawn) [Example 3e, hydrobromide]
Endpoint Name: Percent Inhibition of [^3 H]DTG binding
Numeric Result: 57
--
Compound: CC(=O)C1(C)CC2(C)C(C)CC1N(Cc1ccccc1)C2C (stereo not drawn)
Endpoint Name: Percent Inhibition of [^3 H]DTG binding
Numeric Result: 65
--
Compound: CC(=O)C1CC2C(C(C)C)CC1N(Cc1ccccc1)C2C (stereo not drawn) [Example 11b]
Endpoint Name: Percent Inhibition of [^3 H]DTG binding
Numeric Result: 86
--
Compound: CCOC(=O)C1CC2C(C)NC1CC2C(C)C (stereo not drawn)
Endpoint Name: Percent Inhibition of [^3 H]DTG binding
Numeric Result: 48
--
Compound: CC1CC2C(CO)CC1(C)C(C)N2C (stereo not drawn)
Endpoint Name: Percent Inhibition of [^3 H]DTG binding
Numeric Result: 48
--
Compound: CCOC(=O)C1(C(=O)OCC)CC2(C)C(C)CC1N(Cc1ccccc1)C2C (stereo not drawn)
Endpoint Name: Percent Inhibition of [^3 H]DTG binding
Numeric Result: 79
--
Compound: CCOC(=O)C1(SC)CC2(C)C(C)CC1N(C)C2C (stereo not drawn)
Endpoint Name: Percent Inhibition of [^3 H]DTG binding
Numeric Result: 75

Switching to the query record.
Ask: For sigma receptors, give Percent Inhibition of [^3 H]DTG binding of the listed compound: CCC1CC2C(C(C)(C)O)CC1C(Cc1ccccc1)N2C (stereo not drawn)
Reply: 75

---

- Target System: sigma receptors (Cavia porcellus, UniProt Q60492)
- Construct: Brain tissue was prepared from male Hartley guinea pigs; from tissue; host or cells: brain membranes of male Hartley guinea pigs (22,000 x g pellet)
- Assay Remarks: sigma receptor binding, [^3 H](+)-pentazocine, guinea pig brain membranes
- Design: species or system guinea pig (male Hartley)
- Condition Set: at 10 μM; [^3 H](+)-pentazocine approx. 0.5 nM; 37° C., 150 min; read-out: Percent Inhibition of [^3 H](+)-pentazocine binding
Where a name gives a salt, the structure may show the parent alone.
# inhibition at 10 µM per record follows
Dear colleague, please return just the value in %, with no unit written.

Solved entries (count: 6):
Molecule: CCOC(=O)C1(C(=O)OCC)CC2(C)C(C)CC1N(Cc1ccccc1)C2C (stereo not shown)
inhibition at 10 µM (%): 79
//
Molecule: CC(=O)C1(C)CC2(C)C(C)CC1N(Cc1ccccc1)C2C (stereo not shown)
inhibition at 10 µM (%): 47
//
Molecule: CCC1CC2C(C(C)(C)O)CC1C(Cc1ccccc1)N2C (stereo not shown)
inhibition at 10 µM (%): 72
//
Molecule: CC1CC2C(C(C)(C)O)CC1(C)C(C)N2Cc1ccccc1 (stereo not shown)
inhibition at 10 µM (%): 59
//
Molecule: CC=C1CC2C(C(=O)OCC)CC1C(Cc1ccccc1)N2Cc1ccccc1 (stereo not shown) [Example 3e, hydrobromide]
inhibition at 10 µM (%): 33
//
Molecule: CCOC(=O)C1(SC)CC2(C)C(C)CC1N(C)C2C (stereo not shown)
inhibition at 10 µM (%): 63

Ask: // fetch inhibition at 10 µM given entry CC(=O)C1CC2C(C(C)C)CC1N(Cc1ccccc1)C2C (stereo not shown) [Example 11b]
Reply: 77

All values here come from patent US5240935A.
